system: DMS-114; test: NCI tumour cell line growth inhibition, 48 h
Active and inactive are the calls of the source. No stated cut-off is given here; in the data, active = GI50 up to about 1.1 µM and inactive = higher.
Would you mind answering with one of these outcomes? y (active), n (inactive)

molecule	assigned_label
CCOc1ccc2c(ccc(/C=C/c3cc(C)c4cccnc4c3O)[n+]2C)c1	y
COc1ccc(/C=C(\Cl)c2ccc(OC)c(OC)c2)cc1OC	n
CC(C)C1=CC23CCC4C(C)(C(=O)O)CCCC4(C)C2CC1C1C(=O)N(c2ccccc2)C(=O)C13 (stereo not drawn)	n
O=[N+]([O-])c1cc(C2SCc3nc4ccccc4n32)ccc1Cl (stereo not drawn)	n
COC(=O)/C(=N\NC(=O)c1ccccc1O)C(C#N)c1ccc(Cl)cc1 (stereo not drawn)	n
O=C1N(c2ccc(Cl)cc2)C(=O)C2(SC=NN2Cc2ccccc2)N1c1ccc(Cl)cc1 (stereo not drawn)	n
O=C1c2ccccc2S[C@@H](O)[C@@H]2CCCN12	n

Lab note: next molecule to report on.
Q: For CC(=O)O[C@H]1C(=O)O[C@@H]2C[C@H]3C(C)=CC(=O)[C@@H](O)[C@]3(C)[C@H]3[C@@]4(O)OC[C@]32[C@@H]1[C@@H](C)[C@H]4O , which call appears in the assay record?
Result: y

###

test system: HCC 2998; test: NCI tumour cell line growth inhibition, 48 h
The source made the active and inactive calls. Cut-off read from the data, not from the text of the source: active = GI50 up to about 1.1 µM and inactive = higher.
property_measured: GI50

compound	GI50
CC(C)(C)C1=NN=C2c3ccccc3C(=O)C21 (centres undefined)	4.6 µM (inactive)
Cc1cc(NS(=O)(=O)c2ccc(NC(=O)c3cccc4c(Nc5ccc(S(=O)(=O)N=C(N)N)cc5)c5ccccc5nc34)cc2)no1	> 100 µM (inactive)
Cc1c(C(=O)C/C(=N/NC(=O)C[N+](C)(C)C)C(=O)Nc2ccc(Cl)cc2)[n+]([O-])c2ccccc2[n+]1[O-]	> 100 µM (inactive)
COc1ccc(-n2c(CCCC(=O)O)nc3c2C(=O)c2ccccc2C3=O)cc1	84.7 µM (inactive)
COc1cc(/C=C2\S/C(=N/Nc3nc(-c4ccc(Br)cc4)cs3)NC2=O)cc(OC)c1OC	16.3 µM (inactive)

The following compounds each have a reported value; give each one's GI50.
1. CCC1CC2C(=O)N(c3ccccc3)C(=O)C2c2[nH]c3ccccc3c21 (centres undefined)
2. OC(CC(c1ccccc1)c1ccc(Cl)cc1)c1ccc(Cl)cc1 (centres undefined)
3. Cc1cc2nc(N3C(=O)/C(=C/c4cccc([N+](=O)[O-])c4)N=C3c3ccccc3)sc2cc1C
4. S=C(N/N=C\c1ccccn1)N(Cc1ccccn1)Cc1ccccn1

Result:
["29.3 µM (inactive)", "45.5 µM (inactive)", "21.4 µM (inactive)", "7.03 µM (inactive)"]

###

tested on: CAKI-1; assay: NCI tumour cell line growth inhibition, 48 h
Active and inactive are the calls of the source. Cut-off read from the data, not from the text of the source: active = GI50 up to about 1.1 µM and inactive = higher.
property_measured: GI50

compound	value_reported
CCc1ccccc1NC(=O)CCc1nnc(S)[nH]1	> 100 µM (inactive)

Hi team, please reply with GI50 for each item in this list.
1. OC[C@@H](O)[C@H]1NC[C@@H](O)[C@H]1O
2. CCOC(=O)c1cnc2oc3ccc(O)cc3c2c1-c1ccccc1
3. Cc1c(N)nc([C@H](CC(N)=O)NC[C@H](N)C(N)=O)nc1C(=O)N[C@H](C(=O)N[C@H](C)[C@@H](O)CC(=O)N[C@H](C(=O)NC(O[C@@H]1O[C@@H](C)[C@@H](N)[C@@H](O)[C@H]1O)C(O)c1nc(-c2nc(C(=O)NCCC[S+](C)C)cs2)cs1)[C@@H](C)O)[C@H](O[C@@H]1O[C@@H](CO)[C@@H](O)[C@H](O)[C@@H]1O[C@H]1O[C@H](CO)[C@@H](O)[C@H](OC(N)=O)[C@@H]1O)c1c[nH]cn1 (stereo partly specified)
4. CC(=O)NC1=C(C)C(=O)c2c(nc3n2CCC3O)C1=O (stereo unspecified)
5. COC(=O)CN1Cc2cc(C)cc(c2O)CN(CC(=O)OC)Cc2cc(C)cc(c2O)CN(CC(=O)OC)Cc2cc(C)cc(c2O)CN(CC(=O)OC)Cc2cc(C)cc(c2O)C1

Result:
1. > 100 µM (inactive)
2. > 100 µM (inactive)
3. 73.8 µM (inactive)
4. > 100 µM (inactive)
5. 24.2 µM (inactive)

Every entry's value here was drawn from ChEMBL document CHEMBL1201862.
